From: PubChem BioAssay (NCI)

What growth was measured for each of the following?
System: UACC-62 melanoma
Test: NCI-60 one-dose screen, 48 h (100 = growth as untreated, 0 = no growth, -100 = all killed)
Conditions: 10 µM
Compounds without any hit were thinned out: in the full panel of roughly 83,000, 20% have a hit. Activity calls are given as the source filed them. The calls were made as follows: active = growth percent below 10; inactive = the rest.

[ask] Need growth, item CC(=O)N[C@H](C(=O)N[C@@H](CCCNC(=N)N)C(=O)N[C@@H](CCCCN)C(=O)N[C@@H](CCCNC(=N)N)C(=O)NC(C(=O)N[C@@H](CC(C)C)C(=O)N[C@@H](CCCNC(=N)N)C(=O)N[C@@]1(C)CCC/C=C\CCC[C@@](C)(C(=O)N[C@@H](CCCNC(=N)N)C(=O)N[C@@H](CCC(=O)O)C(=O)N[C@@H](CC(C)C)C(=O)N[C@H](C(=O)N[C@@H](CCC(=O)O)C(N)=O)C(C)C)NC(=O)[C@H](CCC(N)=O)NC(=O)[C@H](CC(C)C)NC(=O)[C@H](CC(C)C)NC1=O)[C@@H](C)O)C(C)C (stereo partly specified)
[reply] -68.1% (active)

[ask] Try this compound next: C[N+]1(CCCCC[N+]2(C)CCCC2)CCCC1
[reply] 102% (inactive)

[ask] Try this compound next: Cc1cc(SCc2ccccc2)nc(N)n1
[reply] 87.5% (inactive)

[ask] Try this compound next: COc1ccc(-c2cc(-c3ccccc3)nc(SCCCC(=O)NO)n2)cc1
[reply] -65.9% (active)

[ask] Try this compound next: O=S(=O)(NCCCNc1nccc(-c2cn(-c3ccccc3)nc2-c2ccc(Cl)c(O)c2)n1)c1ccccc1
[reply] 59.1% (inactive)

[ask] Try this compound next: CSc1nc(S(C)(=O)=O)nc2[nH]c(=O)[nH]c12
[reply] 98.9% (inactive)

[ask] Try this compound next: CN1CCN(CC(=O)Nc2cccc(-n3cc(-c4ccncc4)c(-c4ccc(Cl)c(O)c4)n3)c2)CC1
[reply] 48.3% (inactive)

[ask] Try this compound next: CN(C)CCCOc1cccc(NC2=C(Cl)C(=O)C(Nc3cccc(OCCCN(C)C)c3)=C(Cl)C2=O)c1
[reply] -72.9% (active)

[ask] Try this compound next: Cc1cc(CC(C)CC(C)(C)C)n(O)c(=O)c1 (stereo unspecified) (tested in a mixture with another compound)
[reply] -8.65% (active)

[ask] Try this compound next: Clc1ccc(Cc2ccncc2)cc1
[reply] 95.3% (inactive)

[ask] Try this compound next: Cc1ccc(C(=O)/C=C/c2ccccc2)s1
[reply] 97.4% (inactive)

[ask] Try this compound next: CC(=O)Nc1ccc(CC[C@H]2CCC/C=C/[C@@H]3C[C@H](O)C[C@H]3[C@H](O)/C=C/C(=O)O2)cc1
[reply] 18.7% (inactive)

[ask] Try this compound next: CNC(=O)c1cn2c3c(c(N4CCN(C)CC4)c(F)cc3c1=O)OC[C@@H]2C
[reply] 103% (inactive)

[ask] Try this compound next: COc1ccc(-c2n[nH]nc2-c2cc(OC)c(OC)c(OC)c2)cc1
[reply] 38.4% (inactive)

[ask] Try this compound next: O=C(Nc1ccc(OS(=O)(=O)c2ccccc2)cc1)C1CCCCC1
[reply] 89.5% (inactive)

[ask] Try this compound next: C=CCn1c(SCC(=O)Nc2ccc(C(=O)/C=C/c3ccc(Cl)cc3)cc2)nnc1-c1cc(-c2ccccc2)nc2ccccc12
[reply] 59.9% (inactive)

[ask] Try this compound next: CCCCC1(O)CCCCC1
[reply] 102% (inactive)

[ask] Try this compound next: CCOC(=O)c1cc(C(=O)c2ccc(OC)c(OC)c2)n2ccncc12
[reply] 94% (inactive)

[ask] Try this compound next: CN1CCN(CCCn2c(=O)c3sc4ncccc4c3n3nnc(-c4ccccc4)c23)CC1
[reply] -88% (active)

[ask] Try this compound next: Cc1ccc(/C=C2/C(=O)N(C)c3ccc(S(=O)(=O)Nc4ccc(C(C)(C)C)cc4)cc32)s1
[reply] 74.9% (inactive)

[ask] Try this compound next: COc1cc(C2C(C#N)=C(N)Oc3cc(O)ccc32)cc(OC)c1OC (stereo unspecified)
[reply] 38.4% (inactive)
